Each entry below carries its reported dH.
assay-target: proliferating cell nuclear antigen (PCNA) (UniProt P12004 1-261)
Sequence (P12004 whole entry): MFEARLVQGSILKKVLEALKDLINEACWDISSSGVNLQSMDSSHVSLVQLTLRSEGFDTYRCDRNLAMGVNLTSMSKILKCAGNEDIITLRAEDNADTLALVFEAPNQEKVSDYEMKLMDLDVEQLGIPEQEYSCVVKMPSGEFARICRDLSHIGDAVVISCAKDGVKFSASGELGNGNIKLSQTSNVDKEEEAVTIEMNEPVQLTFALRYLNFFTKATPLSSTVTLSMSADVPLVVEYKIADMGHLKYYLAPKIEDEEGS
assay-name: ITC

>  <binder>
Ac-KRKKQTSMTDFYHSRKK-NH2 [p21_(SWAP) peptide]

>  <unit-of-measure>
kcal/mol

>  <dH>
-18.2

$$$$
>  <binder>
Ac-RRRRQTSMTDFYHSRRR-NH2 [p21_(All–R) peptide]

>  <unit-of-measure>
kcal/mol

>  <dH>
-20.1

$$$$
>  <binder>
Ac-KKKKQTSMTDFYHSKKK-NH2 [p21_(All–K) peptide]

>  <unit-of-measure>
kcal/mol

>  <dH>
-17.7

$$$$
>  <binder>
Ac-RKRRQTSMTDFYHSKRR-NH2 [p21_(140–156) peptide (wild-type p21 PIP-degron with flanking regions)]

>  <unit-of-measure>
kcal/mol

>  <dH>
-21.5

$$$$
